# target.entity: intracellular GCN2 (phosphorylation of the GCN2 substrate eIF2α) (Homo sapiens (Human))
# Sequence (Q9P2K8 whole entry): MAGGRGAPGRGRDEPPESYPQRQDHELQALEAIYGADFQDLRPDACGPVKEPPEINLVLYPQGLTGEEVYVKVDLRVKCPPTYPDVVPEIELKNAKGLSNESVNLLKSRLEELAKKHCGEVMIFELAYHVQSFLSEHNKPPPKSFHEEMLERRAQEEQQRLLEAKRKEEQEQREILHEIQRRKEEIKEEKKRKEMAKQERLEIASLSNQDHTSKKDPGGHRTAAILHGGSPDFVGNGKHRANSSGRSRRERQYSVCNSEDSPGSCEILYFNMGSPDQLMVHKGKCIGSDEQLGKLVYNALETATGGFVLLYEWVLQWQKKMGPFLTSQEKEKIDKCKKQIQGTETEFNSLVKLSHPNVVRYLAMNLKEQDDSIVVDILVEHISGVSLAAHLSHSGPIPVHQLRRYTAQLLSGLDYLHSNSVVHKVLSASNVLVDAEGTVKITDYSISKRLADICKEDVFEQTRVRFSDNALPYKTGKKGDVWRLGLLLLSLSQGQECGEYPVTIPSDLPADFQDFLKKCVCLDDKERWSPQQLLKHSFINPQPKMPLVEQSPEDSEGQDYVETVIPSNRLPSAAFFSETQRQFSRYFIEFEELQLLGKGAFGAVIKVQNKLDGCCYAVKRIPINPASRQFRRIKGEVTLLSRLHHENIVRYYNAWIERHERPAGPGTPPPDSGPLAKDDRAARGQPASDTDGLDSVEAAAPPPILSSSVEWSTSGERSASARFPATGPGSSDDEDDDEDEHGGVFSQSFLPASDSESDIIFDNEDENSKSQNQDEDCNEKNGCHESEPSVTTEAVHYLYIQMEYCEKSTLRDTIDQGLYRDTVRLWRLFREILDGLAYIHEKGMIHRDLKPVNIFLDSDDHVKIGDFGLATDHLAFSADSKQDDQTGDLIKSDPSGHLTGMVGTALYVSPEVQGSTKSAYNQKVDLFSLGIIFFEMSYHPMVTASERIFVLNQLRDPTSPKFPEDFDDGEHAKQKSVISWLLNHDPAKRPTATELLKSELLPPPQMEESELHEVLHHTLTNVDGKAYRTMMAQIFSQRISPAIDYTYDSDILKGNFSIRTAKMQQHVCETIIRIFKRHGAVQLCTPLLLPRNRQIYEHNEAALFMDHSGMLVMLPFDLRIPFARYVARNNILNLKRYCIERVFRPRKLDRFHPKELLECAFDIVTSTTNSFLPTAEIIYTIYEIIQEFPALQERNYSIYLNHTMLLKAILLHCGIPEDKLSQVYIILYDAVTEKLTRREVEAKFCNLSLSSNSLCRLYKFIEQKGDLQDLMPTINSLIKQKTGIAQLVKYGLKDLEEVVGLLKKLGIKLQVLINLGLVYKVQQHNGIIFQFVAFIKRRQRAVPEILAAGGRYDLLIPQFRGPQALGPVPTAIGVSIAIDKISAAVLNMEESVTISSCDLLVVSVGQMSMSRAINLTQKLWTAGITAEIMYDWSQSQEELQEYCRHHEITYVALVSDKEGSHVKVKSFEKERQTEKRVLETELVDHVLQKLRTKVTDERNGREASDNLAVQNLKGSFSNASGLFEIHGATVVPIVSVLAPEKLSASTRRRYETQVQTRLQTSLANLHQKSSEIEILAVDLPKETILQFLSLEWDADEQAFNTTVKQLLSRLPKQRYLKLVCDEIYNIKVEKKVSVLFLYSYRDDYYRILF
# measurement.protocol: GCN2 Cellular Inhibition Assay (AlphaScreen SureFire P-eIF2α Ser51, borrelidin-treated U2OS cells)
# Assay type: cell-based
# condition.label: 10 μM borrelidin, 1 h, phosphorylated eIF2α Ser51, read-out: GCN2 Biomarker (IC50)
pIC50: −log10 of the molar value.
result.type: pIC50

Below, 5 molecules whose answers are already recorded.
{"columns": ["molecule", "target.entity", "pIC50"],
 "data": [
  ["Cc1noc([C@H]2CN(c3ccnc(-c4cnc5ccc(C(F)(F)F)cn45)n3)C[C@@H](C)O2)n1 (stereo in doubt) [I-90]", "intracellular GCN2 (phosphorylation of the GCN2 substrate eIF2α) (Homo sapiens (Human))", "> 6.30"],
  ["CC(NS(C)(=O)=O)C1CN(c2ccnc(-c3cnc4ccc(C(F)(F)F)cn34)n2)CCO1 (stereo not shown) [I-327]", "intracellular GCN2 (phosphorylation of the GCN2 substrate eIF2α) (Homo sapiens (Human))", "5.30 to 6.30"],
  ["CS(=O)(=O)C1CC(N2CCN(c3ccnc(-c4cnc5ccc(C(F)(F)F)cn45)n3)C[C@@H]2c2cn[nH]c2)C1 (stereo partly shown) [I-495]", "intracellular GCN2 (phosphorylation of the GCN2 substrate eIF2α) (Homo sapiens (Human))", "> 6.30"],
  ["C[C@@H]1[C@@H](CNS(C)(=O)=O)N(C2CC2)[C@H](C)CN1c1ccnc(-c2cnc3ccc(C(F)(F)F)cn23)n1 (stereo in doubt) [I-493]", "intracellular GCN2 (phosphorylation of the GCN2 substrate eIF2α) (Homo sapiens (Human))", "> 6.30"],
  ["CS(=O)(=O)NC[C@@H]1CN(c2ccnc(-c3cnc4ccc(C(F)F)cn34)n2)CCO1 [I-13]", "intracellular GCN2 (phosphorylation of the GCN2 substrate eIF2α) (Homo sapiens (Human))", "5.30 to 6.30"]
]}

For record O=C(c1cnon1)N1CCN(c2ccnc(-c3cnc4ccc(C(F)(F)F)cn34)n2)CC1c1cn[nH]c1 (stereo not shown) [I-441] the listed pIC50 is < 5.30

Entry C[C@@H]1CN(c2nccc(-c3cnc4ccc(Cl)cn34)n2)C[C@H](c2cn[nH]c2)O1 [I-248] — recorded pIC50 = > 6.30
